Target: T1, full-length untagged human GPNMB expressed on cells (human, UniProt Q14956 23-572)
T1 sequence: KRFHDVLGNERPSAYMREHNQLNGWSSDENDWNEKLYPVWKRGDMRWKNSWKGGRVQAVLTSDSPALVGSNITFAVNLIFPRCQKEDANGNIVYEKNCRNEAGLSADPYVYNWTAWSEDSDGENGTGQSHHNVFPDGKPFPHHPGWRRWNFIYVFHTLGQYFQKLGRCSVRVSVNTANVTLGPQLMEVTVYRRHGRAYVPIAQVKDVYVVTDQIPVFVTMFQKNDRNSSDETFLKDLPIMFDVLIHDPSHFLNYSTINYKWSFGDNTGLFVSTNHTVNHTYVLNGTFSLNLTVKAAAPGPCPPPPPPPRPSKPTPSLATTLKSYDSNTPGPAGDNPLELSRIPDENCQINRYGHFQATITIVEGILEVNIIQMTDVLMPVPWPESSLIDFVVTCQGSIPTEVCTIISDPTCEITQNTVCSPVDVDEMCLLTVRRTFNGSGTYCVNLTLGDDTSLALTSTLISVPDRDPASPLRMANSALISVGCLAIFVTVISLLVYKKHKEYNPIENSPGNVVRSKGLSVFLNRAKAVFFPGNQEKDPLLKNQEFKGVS
Experiment: cell-based or functional assay
endpoint label: CD40 (FoB)
Give just the numeric value; FoB need not be written.

Answered cases to consult:
binder	CD40 (FoB)
anti-GPNMB antibody GPN-35 (antibody, human IgG1, V domains shown, chimeric) VH: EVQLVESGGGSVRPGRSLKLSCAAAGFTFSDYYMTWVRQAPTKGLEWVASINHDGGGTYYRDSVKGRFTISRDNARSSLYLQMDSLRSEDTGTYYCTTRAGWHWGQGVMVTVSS VL: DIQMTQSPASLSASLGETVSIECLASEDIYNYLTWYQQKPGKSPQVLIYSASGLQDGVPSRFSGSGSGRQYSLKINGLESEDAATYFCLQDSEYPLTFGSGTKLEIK	1.31
anti-GPNMB antibody GPN-11 (antibody, human IgG1, V domains shown, chimeric) VH: QVQLQQPGAELVKPGASVKLSCKASGYTFTSYWMHWVKQRPGQGLEWIGEINSSNGRTNYNEKFKTKATLTVDRSSSTAYMQLSSLTSEDSAVYYCARLGYYSGSPYPYYAMDCWGQGTSVTVSS VL: DIQMTQSPASLSVSVGETVTITCRASENIYSNLAWYQQKQGKSPQLLVYAATNLADGVPSRFSGSGSGTQYSLKINSLQSEDFGSYYCQHFWNTPPTFGGGTKLEIK	1.7
anti-GPNMB antibody GPN-07 (antibody, human IgG1, V domains shown, chimeric) VH: QVQLQQSGAEQVKPGASVKLSCKASGYTFTSYYMYWVKQRPGQGLEWIGEINPSNGGTYFNEKFKSKATLTVDKSSSTAYMHLSSLTSEDSAVYYCTRGGTYYAYWGQGTLVTVSA VL: DIQMTQSPSSLSASLGERVSLTCRASQEMSGHLSWLQQKPDGTIKRLIYAASTLDSGVPKRFSGSRSGSDYSLTISSLESEDFADYYCLQYASYPYTFGGGTKLEIK	1.39

Read the next record carefully.
Input: Recorded CD40 (FoB) of anti-GPNMB antibody GPN-22 (antibody, human IgG1, V domains shown, chimeric) VH: QVQLQQPGAERVKPGASVKMSCKASGYTFTSYWITWVKQRPGQGLEWIGDIFPGSGSTNYHEKFKSKATLTVDTSSSTAYMQLSSLTSEDSAVYYCSRGYFGSSFSDYWGQGTSVTVSS VL: DIQMTQSPSSLSASLGERVSLTCRTSQEISGYLSWLQQKPDGTIKRLIYSTSTLDSGVPKRFSGSRSGSDYSLTISSLESEDFADYYCLQYASSPPTFGSGTKLEIK , please.
Output: 1.7

Data provenance: patent US20250270343A1
